- protocol_summary: gradient 5% acetonitrile 3 min, to 50% in 2 min, to 85% in 15 min, held 3 min, 100 µL/min
- assay_conditions: column: Zorbax Extend-C18 2.1 x 50 mm; eluents: water / acetonitrile, 0.1% formic acid
measured_endpoint: RP-LC retention time (s)

| compound | RP-LC retention time (s) |
| --- | --- |
| Cc1cc(C(=O)Nc2cccc(Cl)c2)nc2ccnn12 | 988 |
| Cc1ccccc1CNC(=O)C1CCCN(S(=O)(=O)c2c[nH]c(C(=O)N3CCCC3)c2)C1 (stereo not given) | 877 |
| O=C(CCn1nnc2cc(-c3noc(-c4ccc(Cl)cc4)n3)ccc21)N1CCOCC1 | 936 |
| CCc1nncn1C1CCN(C(=O)c2cc(F)ccc2Cl)CC1 | 628 |
| COC(=O)c1c(C)[nH]c(C(=O)N2CCCC(C(=O)NCc3ccccc3C)C2)c1C (stereo not given) | 776 |

From: the METLIN SMRT retention time set (Domingo-Almenara et al. 2019)
